Measured selectivity ratio at 10 min, listed per entry.
# test name: inhalation anesthesia test in mice (10 min exposure in a rotating drum; pinch, corneal and righting reflexes)
# Format: in vivo
# applied conditions: mouse, in vivo, inhaled or intranasal; calculated from LC50 and AC50 in mice; read-out: AI (anesthetic index, LC50/AC50)

selectivity ratio at 10 min lookup needed for CC1CC1(F)Br (centres unmarked) , thanks.
> 2

Likewise for CC1(F)CC1(F)Br (centres unmarked) ?
10
